- Test system: LOX IMVI
- measurementDescription: NCI tumour cell line growth inhibition, 48 h
Active and inactive are the calls of the source. No stated cut-off is given here; in the data, active = GI50 up to about 1.1 µM and inactive = higher. *1 amine or outer side, *2 acyl side, *3 side chain or, on linkers, in order; H or OH if unused. Where a SMILES comes first, the peptide text is derived from it. Bridges are numbered along the chain shown (N, C = ends). Roman numbers before positions name the chains, in order. [ ]: non-standard residue; d: D form. Actinocin(1to9) = Cc1c2oc3c(C)ccc(C(=O)[*:2])c3nc-2c(C(=O)[*:1])c(N)c1=O; NMeV = CN[CH](C(=O)O)C(C)C; Sar = CNCC(=O)O
Please answer using one outcome listed in YES (active), NO (inactive)

Ask | Record lookup: outcome of this test for N=C(N)/N=C(\N)Nc1cnccn1 ?
Reply | NO

Ask | Repeat for the following molecule: C#CCOC(=O)C(N)CSSCC(N)C(=O)O (centres undefined)
Reply | NO

Ask | Can you check CCOC(=O)c1ccc(/N=c2/[nH]c3ccccc3s/c2=N/c2ccc(C(=O)OCC)cc2)cc1 next?
Reply | NO

Ask | Continue with CC1=CC(=O)c2c(O)cccc2C1=O
Reply | NO

Ask | Similarly, c1cc(CSP234N5CCN2CCN3CCN4CC5)ccc1CSP123N4CCN1CCN2CCN3CC4 ?
Reply | NO

Ask | Now give it for Cc1ccc(C2C(C(=O)C(C)(C)C)N2S(=O)(=O)c2ccc(C)cc2)cc1 (centres undefined) too.
Reply | NO

Ask | Can you handle NC1=Nc2cc(Cl)ccc2Sc2nc3ccccc3n21 next?
Reply | NO

Ask | Please do the same for O=C(O)CCC(=O)c1ccc(Cl)cc1 as well.
Reply | NO

Ask | Moving on to the next molecule: CCC(C)C1NC(=O)C(NC(=O)c2c3nc4c(C(=O)NC5C(=O)NC(C(C)C)C(=O)N6CCCC6C(=O)N(C)CC(=O)N(C)C(C(C)C)C(=O)OC5C)ccc(C)c4oc-3c(C)c(=O)c2N)C(C)OC(=O)C(C(C)C)N(C)C(=O)CN(C)C(=O)C2CCCN2C1=O (centres undefined) (I: TIP[Sar][NMeV] / II: TVP[Sar][NMeV]; ester I:1-I:C, II:1-II:C; linker I:N-II:N via Actinocin(1to9); configuration not given here)
Reply | YES
